- target under test: Urease (Canavalia ensiformis)
- Sequence (P07374 whole entry): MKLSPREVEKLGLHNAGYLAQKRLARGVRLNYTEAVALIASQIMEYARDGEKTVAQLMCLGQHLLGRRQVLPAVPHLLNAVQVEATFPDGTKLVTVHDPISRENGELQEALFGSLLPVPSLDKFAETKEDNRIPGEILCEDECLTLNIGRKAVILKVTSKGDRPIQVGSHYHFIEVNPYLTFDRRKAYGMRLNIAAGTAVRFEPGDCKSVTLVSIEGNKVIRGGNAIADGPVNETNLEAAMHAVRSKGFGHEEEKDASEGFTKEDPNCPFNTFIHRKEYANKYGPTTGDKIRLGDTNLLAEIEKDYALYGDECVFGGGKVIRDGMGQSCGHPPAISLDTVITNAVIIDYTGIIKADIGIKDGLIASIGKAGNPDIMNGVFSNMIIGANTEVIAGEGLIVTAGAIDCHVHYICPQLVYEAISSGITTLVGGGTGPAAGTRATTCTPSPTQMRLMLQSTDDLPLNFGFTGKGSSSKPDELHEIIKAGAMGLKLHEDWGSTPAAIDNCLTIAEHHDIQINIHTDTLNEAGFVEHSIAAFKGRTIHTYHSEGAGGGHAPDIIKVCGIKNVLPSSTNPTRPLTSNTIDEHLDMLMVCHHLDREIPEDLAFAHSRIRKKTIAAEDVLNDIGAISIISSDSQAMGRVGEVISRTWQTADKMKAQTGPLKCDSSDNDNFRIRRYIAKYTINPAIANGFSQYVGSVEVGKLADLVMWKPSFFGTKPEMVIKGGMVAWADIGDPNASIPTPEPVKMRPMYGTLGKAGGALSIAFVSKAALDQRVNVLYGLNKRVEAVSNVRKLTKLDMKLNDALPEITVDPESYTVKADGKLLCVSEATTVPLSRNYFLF
- test name: Inhibition of jack bean urease using urea as substrate assessed as ammonia production at 250 ug/ml after 15 mins relative to control
Mark Y for reported inhibition of 20% or greater; mark N for anything smaller.

I'd appreciate it if you could say whether O=S(=O)(Cl)c1ccc(/N=c2/sc(-c3ccc(Cl)cc3)cn2-c2ccccc2)cc1 has inhibition at least equal to 20%. N

Would you say CC(=O)OCC1=C(C(=O)O)N2C(=O)[C@@H](NS(=O)(=O)c3ccc(N)cc3)[C@H]2SC1 shows inhibition at minimum 20%? N

---
Item O=S(=O)(Cl)c1ccc(/N=c2/oc(-c3ccc(Cl)cc3)cn2Cc2ccccc2)cc1 with inhibition of 20% or above? Y

API: above_or_equal(metric=inhibition, cutoff=20%) for item CC(=O)OCC1=C(C(=O)O)N2C(=O)[C@@H](NS(=O)(=O)c3ccc([N+](=O)[O-])cc3)[C@H]2SC1 Y

Threshold query (inhibition >= 20%) on O=C(Cl)CN1CCN(c2ccc([N+](=O)[O-])cc2F)CC1 Y

Please indicate if the recorded inhibition for O=C(NCc1ccccc1)Nc1ccc(S(=O)(=O)Cl)cc1 meets or exceeds 20%. Y

Dear colleague, could you confirm whether CC(=O)OCC1=C(C(=O)O)N2C(=O)[C@@H](NS(=O)(=O)c3ccc(/N=c4/sc(-c5ccc(Cl)cc5)cn4-c4ccccc4)cc3)[C@H]2SC1 has inhibition at or above 20%? N

State whether the measured inhibition reaches 20%, counting equality as reaching it, for O=S(=O)(Cl)c1ccc(NC(=S)Nc2ccccc2)cc1 Y

Answer whether inhibition of O=C(Nc1ccccc1)Nc1ccc(S(=O)(=O)Cl)cc1 is greater than or equal to 20%. Y

====

- test name: Inhibition of Bacillus cereus metallo beta-lactamase assessed as nitrocefin substrate hydrolysis after 20 mins
value kind: IC50 (µM)
Numbers only, in µM.

// query IC50 value for entry CC(=O)OCC1=C(C(=O)O)N2C(=O)[C@@H](NC(=O)CN3CCN(c4ccc([N+](=O)[O-])cc4F)CC3)[C@H]2SC1 1170

Please find the next compound below.
Consider the compound CC(=O)OCC1=C(C(=O)O)N2C(=O)[C@@H](NS(=O)(=O)c3ccc(/N=c4/sc(-c5ccc(Cl)cc5)cn4Cc4ccccc4)cc3)[C@H]2SC1 and give its measured IC50. 543

====

- target under test: Urease (Canavalia ensiformis)
- test name: Inhibition of jack bean urease using urea as substrate assessed as ammonia production after 15 mins
value kind: pIC50
Give bare numbers, as −log10 of the molar value.

For O=C(Nc1ccccc1)Nc1ccc(S(=O)(=O)Cl)cc1 , what is its reported pIC50? 3.41

====

- Tested on: Yersinia pseudotuberculosis
- test name: Antimicrobial activity against Yersinia pseudotuberculosis ATCC 911
- Format: functional
Active and inactive are the calls of the source. The calls are words filed in the database; no cut-off is given here.
value kind: inhibition zone (IZ)

Use these answered entries as a reference point.
State the recorded inhibition zone (IZ) for this entry: CC(=O)OCC1=C(C(=O)O)N2C(=O)[C@@H](NS(=O)(=O)c3ccc(/N=c4/sc(-c5ccc(Cl)cc5)cn4-c4ccccc4)cc3)[C@H]2SC1 6 mm

Param item = CC(=O)OCC1=C(C(=O)O)N2C(=O)[C@@H](NS(=O)(=O)c3ccc(/N=C4/SC(=O)CN4Cc4ccccc4)cc3)[C@H]2SC1 ; retrieve measured inhibition zone (IZ). 8 mm

Entry CC(=O)OCC1=C(C(=O)O)N2C(=O)[C@@H](NS(=O)(=O)c3ccc(N)cc3)[C@H]2SC1 : reported inhibition zone (IZ) = ? 12 mm

Need inhibition zone (IZ), item O=S(=O)(Cl)c1ccc(/N=c2/sc(-c3ccc(Cl)cc3)cn2-c2ccccc2)cc1 inactive

# input compound: O=S(=O)(Cl)c1ccc(NC(=S)NCc2ccccc2)cc1 ; wanted: its inhibition zone (IZ) 25 mm

Give the measured inhibition zone (IZ) of O=C(Cl)CN1CCN(c2ccc([N+](=O)[O-])cc2F)CC1 . inactive

Count: 4. Required value per item: inhibition zone (IZ).
1. Nc1ccc(S(=O)(=O)Cl)cc1
2. O=C(Nc1ccccc1)Nc1ccc(S(=O)(=O)Cl)cc1
3. CC(=O)OCC1=C(C(=O)O)N2C(=O)[C@@H](NC(=O)CN3CCN(c4ccc([N+](=O)[O-])cc4F)CC3)[C@H]2SC1
4. O=S(=O)(Cl)c1ccc(NC(=S)Nc2ccccc2)cc1

1: 12 mm; 2: inactive; 3: 6 mm; 4: inactive
